molecules and their reported GI50
Test system: SF-539 CNS
test name: NCI tumour cell line growth inhibition, 48 h

Illustrative cases are given below, each with its answer.
1. O=S(=O)(Nc1ccc(Cl)c(C(F)(F)F)c1)c1ccc(-c2cnc(C3CC3)o2)cc1 :: 452 nM
2. COc1ccc2cc(C(=O)/C=C/c3ccc(OC)c(OC)c3)ccc2c1 :: 3770 nM
3. O=[N+]([O-])c1ccc2nc(N/N=C/c3ccc(O)cc3)sc2c1 :: 3200 nM
4. Cc1c2c(cc[n+]1Cc1ccccc1)c1ccc(OCC3CCCCC3)cc1n2CC1CCCCC1 :: 1490 nM

--- query ---
Exam item: # get_value(readout='GI50', item= `Cc1cc(NC(=O)CCc2ccc(N3C(N)=NC(N)=NC3(C)C)cc2)ccc1S(=O)(=O)F` )
Marked response: 1000 nM
